target: Igf2bp1 (Homo sapiens, UniProt Q9NZI8); construct: Recombinant full-length Igf2bp1 protein; made in house; host or cells: E. coli BL21(DE3); experiment: Microscale thermophoresis (MST) binding to full-length Igf2bp1; conditions: full-length protein, unit printed μM
Sequence (Q9NZI8 whole entry): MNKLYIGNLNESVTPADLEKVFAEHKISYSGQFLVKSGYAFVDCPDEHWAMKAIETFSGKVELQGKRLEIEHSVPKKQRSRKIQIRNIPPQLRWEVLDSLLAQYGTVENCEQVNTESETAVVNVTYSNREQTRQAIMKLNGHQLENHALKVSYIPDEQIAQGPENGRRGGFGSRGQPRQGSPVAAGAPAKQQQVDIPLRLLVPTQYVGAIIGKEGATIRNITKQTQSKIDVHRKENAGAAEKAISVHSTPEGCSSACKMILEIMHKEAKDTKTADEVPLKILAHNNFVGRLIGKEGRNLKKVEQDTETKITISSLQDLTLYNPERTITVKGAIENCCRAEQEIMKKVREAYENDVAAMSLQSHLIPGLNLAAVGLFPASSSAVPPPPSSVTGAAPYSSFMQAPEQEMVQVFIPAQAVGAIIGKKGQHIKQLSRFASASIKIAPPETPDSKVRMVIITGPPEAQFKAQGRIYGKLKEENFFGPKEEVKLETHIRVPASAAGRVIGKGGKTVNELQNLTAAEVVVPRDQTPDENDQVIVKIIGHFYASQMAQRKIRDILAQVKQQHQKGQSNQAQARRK
recorded-endpoint: Kd
Please format your answer as a value with the unit trailing.

(Q) Kd for O=C(c1ccc(Cn2cnnn2)cc1)N1CCCC(Nc2ccc3c(c2)OCO3)C1 (stereo not shown) ?
(A) 17 µM

###

target: Igf2bp1 KH34 di-domain (Homo sapiens, UniProt Q9NZI8)
Sequence (Q9NZI8 387-574): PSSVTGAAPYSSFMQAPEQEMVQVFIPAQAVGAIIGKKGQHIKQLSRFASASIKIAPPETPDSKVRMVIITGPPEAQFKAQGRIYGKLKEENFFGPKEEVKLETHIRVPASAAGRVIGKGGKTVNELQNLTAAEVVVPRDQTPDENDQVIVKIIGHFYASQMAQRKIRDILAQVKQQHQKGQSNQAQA
recorded-endpoint: pKd
pKd is a log-scale quantity: -log10 of the concentration expressed in molar.

(Q) // pKd lookup, key: O=C(c1ccc(Cn2cnnn2)cc1)N1CCCC(Nc2ccc3c(c2)OCO3)C1 (stereo not shown)
(A) 5.14

###

molecular target: La binding to Bcl2 RNA (Homo sapiens, UniProt P05455)
Sequence (P05455 whole entry): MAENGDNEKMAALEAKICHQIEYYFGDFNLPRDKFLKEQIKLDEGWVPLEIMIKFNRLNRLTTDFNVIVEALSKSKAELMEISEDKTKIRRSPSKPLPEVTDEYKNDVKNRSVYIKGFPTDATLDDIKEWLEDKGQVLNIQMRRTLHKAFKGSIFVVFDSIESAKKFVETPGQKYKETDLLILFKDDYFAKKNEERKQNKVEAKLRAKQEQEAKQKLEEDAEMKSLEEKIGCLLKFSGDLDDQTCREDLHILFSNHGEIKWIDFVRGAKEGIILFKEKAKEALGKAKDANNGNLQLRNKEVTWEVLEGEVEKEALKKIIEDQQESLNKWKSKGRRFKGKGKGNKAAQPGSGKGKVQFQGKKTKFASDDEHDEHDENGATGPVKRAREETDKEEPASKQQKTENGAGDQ
recorded-endpoint: IC50

(Q) Using the record for O=C(c1ccc(Cn2cnnn2)cc1)N1CCCC(Nc2ccc3c(c2)OCO3)C1 (stereo not shown) , report its IC50.
(A) > 100 µM

Where do these numbers come from? They come from patent US20240025886A1.
